# METHOD SUMMARY: DRUGMATRIX: Imidazoline I2, Central radioligand binding (ligand: [3H] Idazoxan)
# Assay type: cell membranes, Rattus norvegicus, Wistar, Cerebral cortex, Membrane
# EXPERIMENTAL CONDITIONS: Not Active = under 50% inhibition at 10 µM
PROPERTY MEASURED: Ki

Solved entries:
SUBSTANCE	MEAS VALUE
CARBOPLATIN	Not Active
GOLD SODIUM THIOMALATE	Not Active
IVERMECTIN	Not Active
OXALIPLATIN	Not Active

# Ki of CISPLATIN = Not Active

---

# TGT: C-X-C chemokine receptor type 2 (Homo sapiens)
# Sequence (P25025 whole entry): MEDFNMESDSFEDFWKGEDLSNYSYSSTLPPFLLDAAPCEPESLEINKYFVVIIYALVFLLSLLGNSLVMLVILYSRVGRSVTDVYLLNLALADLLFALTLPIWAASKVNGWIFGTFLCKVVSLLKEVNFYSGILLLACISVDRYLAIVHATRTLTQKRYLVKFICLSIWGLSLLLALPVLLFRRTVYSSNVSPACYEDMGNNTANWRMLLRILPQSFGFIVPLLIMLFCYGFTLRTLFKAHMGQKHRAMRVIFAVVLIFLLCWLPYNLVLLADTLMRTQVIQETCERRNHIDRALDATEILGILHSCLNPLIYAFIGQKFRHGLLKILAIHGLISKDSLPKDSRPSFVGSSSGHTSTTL
# Format: cell membranes, Membrane
# EXPERIMENTAL CONDITIONS: cho-k1
PROPERTY MEASURED: IC50

Solved entries:
COMPOUND	TGT	IC50
COc1ccc2cc(CC(=O)O)ccc2c1	C-X-C chemokine receptor type 2 (Homo sapiens)	Not Active
CC[N+](CC)(CC)CCOc1cccc(OCC[N+](CC)(CC)CC)c1OCC[N+](CC)(CC)CC.[I-].[I-].[I-] [GALLAMINE TRIETHIODIDE]	C-X-C chemokine receptor type 2 (Homo sapiens)	Not Active
CC=CC(=O)N(CC)c1ccccc1C	C-X-C chemokine receptor type 2 (Homo sapiens)	Not Active
CN1CCN2c3ccccc3Cc3ccccc3C2C1 (stereo not drawn)	C-X-C chemokine receptor type 2 (Homo sapiens)	Not Active

CC(=O)O[C@]1(C(C)=O)CC[C@H]2[C@@H]3C=C(Cl)C4=CC(=O)CC[C@]4(C)[C@H]3CC[C@@]21C [CHLORMADINONE ACETATE] on C-X-C chemokine receptor type 2 (Homo sapiens) gives IC50 = Not Active

NS(=O)(=O)c1cc2c(cc1Cl)NCNS2(=O)=O [HYDROCHLOROTHIAZIDE] on C-X-C chemokine receptor type 2 (Homo sapiens) gives IC50 = Not Active

C=C1C(=O)O[C@@H]2C3O[C@]3(C)CC/C=C(\C)CC[C@@H]12 (stereo partly drawn) on C-X-C chemokine receptor type 2 (Homo sapiens) gives IC50 = Not Active

---

IC50 tested on Androgen receptor (Rattus norvegicus, UniProt P15207): recorded values; also: in other assays of this panel Not Active means under 50% inhibition at 10 µM
Sequence (P15207 whole entry S389L): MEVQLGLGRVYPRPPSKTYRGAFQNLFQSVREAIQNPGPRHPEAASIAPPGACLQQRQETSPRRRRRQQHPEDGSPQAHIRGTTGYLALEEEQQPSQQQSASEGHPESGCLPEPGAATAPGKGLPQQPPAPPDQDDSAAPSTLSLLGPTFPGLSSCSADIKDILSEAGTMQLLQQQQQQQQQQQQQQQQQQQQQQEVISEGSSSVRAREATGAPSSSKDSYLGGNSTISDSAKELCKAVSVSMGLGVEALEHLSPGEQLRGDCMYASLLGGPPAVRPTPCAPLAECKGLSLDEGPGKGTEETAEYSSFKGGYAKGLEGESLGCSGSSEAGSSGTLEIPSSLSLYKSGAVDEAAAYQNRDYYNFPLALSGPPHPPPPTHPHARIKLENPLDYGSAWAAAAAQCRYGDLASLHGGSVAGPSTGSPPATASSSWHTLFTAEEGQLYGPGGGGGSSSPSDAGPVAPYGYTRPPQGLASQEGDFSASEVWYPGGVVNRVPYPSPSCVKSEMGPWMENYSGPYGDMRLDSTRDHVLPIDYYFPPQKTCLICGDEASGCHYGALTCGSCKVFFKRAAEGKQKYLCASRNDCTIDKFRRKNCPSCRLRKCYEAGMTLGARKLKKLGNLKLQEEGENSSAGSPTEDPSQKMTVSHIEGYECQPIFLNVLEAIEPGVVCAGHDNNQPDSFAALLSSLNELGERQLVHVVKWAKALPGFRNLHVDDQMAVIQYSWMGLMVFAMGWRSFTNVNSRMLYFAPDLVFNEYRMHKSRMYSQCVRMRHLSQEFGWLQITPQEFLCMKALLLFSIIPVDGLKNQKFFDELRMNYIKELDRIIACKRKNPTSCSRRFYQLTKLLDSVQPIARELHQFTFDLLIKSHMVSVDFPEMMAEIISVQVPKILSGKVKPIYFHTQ
PROPERTY MEASURED: IC50

STRUCTURE SMILES STRING	TGT	PROPERTY MEASURED	MEAS VALUE
OCc1ccccc1	Androgen receptor (Rattus norvegicus, UniProt P15207)	IC50	Not Active
CC(C)(O)c1ccccc1CC[C@@H](SCC1(CC(=O)O)CC1)c1cccc(/C=C/c2ccc3ccc(Cl)cc3n2)c1	Androgen receptor (Rattus norvegicus, UniProt P15207)	IC50	Not Active
COCc1c(C(C)C)nc(C(C)C)c(/C=C/[C@@H](O)C[C@@H](O)CC(=O)O)c1-c1ccc(F)cc1	Androgen receptor (Rattus norvegicus, UniProt P15207)	IC50	Not Active

---

# TGT: Adenosine receptor A3 (Homo sapiens, UniProt P0DMS8)
# Sequence (P0DMS8 whole entry): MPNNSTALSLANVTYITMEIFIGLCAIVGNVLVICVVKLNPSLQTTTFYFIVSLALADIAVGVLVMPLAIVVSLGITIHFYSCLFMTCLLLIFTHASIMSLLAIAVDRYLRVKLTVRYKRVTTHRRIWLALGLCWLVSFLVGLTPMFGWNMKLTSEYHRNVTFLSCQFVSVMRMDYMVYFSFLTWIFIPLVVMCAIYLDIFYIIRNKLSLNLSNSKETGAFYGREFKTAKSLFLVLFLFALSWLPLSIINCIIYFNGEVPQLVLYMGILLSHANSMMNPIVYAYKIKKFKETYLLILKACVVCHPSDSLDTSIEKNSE
# Assay type: cell membranes, CHO-K1, Membrane
# EXPERIMENTAL CONDITIONS: read-out: Ki
Just a reminder that ties go to Condition not met: only Ki strictly below 2000 nM counts as Condition met.

MOLECULE	TGT	CATEGORY LABEL
Clc1ccccc1C(c1ccccc1)(c1ccccc1)n1ccnc1 [CLOTRIMAZOLE]	Adenosine receptor A3 (Homo sapiens, UniProt P0DMS8)	Condition not met
Oc1c(I)cc(I)c2cccnc12 [IODOQUINOL]	Adenosine receptor A3 (Homo sapiens, UniProt P0DMS8)	Condition met
CC1=C(/C=C/C(C)=C/C=C/C(C)=C\C(=O)O)C(C)(C)CCC1 [ISOTRETINOIN]	Adenosine receptor A3 (Homo sapiens, UniProt P0DMS8)	Condition not met

[Q] Take the molecule C[C@]12Cc3c[nH]nc3C[C@@H]1CC[C@@H]1[C@@H]2CC[C@@]2(C)[C@H]1CC[C@]2(C)O [STANOZOLOL] and say whether its Ki is less than 2000 nM.
[A] Condition not met

---

# TGT: Melanocortin receptor 4 (Homo sapiens, UniProt P32245)
# Sequence (P32245 whole entry): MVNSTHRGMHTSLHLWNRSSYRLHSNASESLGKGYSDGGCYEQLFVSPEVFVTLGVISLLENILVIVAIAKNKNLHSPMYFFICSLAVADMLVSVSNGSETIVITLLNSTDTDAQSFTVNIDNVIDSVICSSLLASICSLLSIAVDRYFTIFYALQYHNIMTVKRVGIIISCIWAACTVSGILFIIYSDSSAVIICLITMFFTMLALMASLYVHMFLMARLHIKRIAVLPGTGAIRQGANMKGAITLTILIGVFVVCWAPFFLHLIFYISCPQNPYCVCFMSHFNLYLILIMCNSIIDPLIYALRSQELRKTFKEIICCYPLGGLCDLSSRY
# Type: cell membranes, Membrane
# EXPERIMENTAL CONDITIONS: hek293

COMPOUND	IC50
CN(C)CCCN1c2ccccc2CCc2ccc(Cl)cc21	Not Active
C=CC[C@@H]1/C=C(\C)C[C@H](C)C[C@H](OC)[C@H]2O[C@@](O)(C(=O)C(=O)N3CCCC[C@H]3C(=O)O[C@H](/C(C)=C/[C@@H]3CC[C@@H](O)[C@H](OC)C3)[C@H](C)[C@@H](O)CC1=O)[C@H](C)C[C@@H]2OC [TACROLIMUS ANHYDROUS]	Not Active
Nc1nnc(-c2cccc(Cl)c2Cl)c(N)n1	Not Active

---

# TGT: C-X-C chemokine receptor type 1 (Homo sapiens, UniProt P25024)
# Sequence (P25024 whole entry): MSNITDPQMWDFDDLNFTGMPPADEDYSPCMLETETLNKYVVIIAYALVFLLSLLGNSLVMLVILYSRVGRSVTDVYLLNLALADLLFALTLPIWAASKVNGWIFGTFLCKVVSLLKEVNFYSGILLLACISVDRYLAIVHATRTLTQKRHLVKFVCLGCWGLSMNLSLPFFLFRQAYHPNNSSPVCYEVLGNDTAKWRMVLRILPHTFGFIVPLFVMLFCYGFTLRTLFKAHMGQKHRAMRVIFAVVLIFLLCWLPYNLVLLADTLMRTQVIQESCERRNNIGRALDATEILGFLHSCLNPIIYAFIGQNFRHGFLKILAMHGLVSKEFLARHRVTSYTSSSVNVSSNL
PROPERTY MEASURED: IC50

COMPOUND	IC50
CC1(C)[C@H]2CC[C@]1(C)C(=O)C2 [(-)-CAMPHOR]	Not Active
CN(C)[C@@H]1C(O)=C(C(N)=O)C(=O)[C@@]2(O)C(O)=C3C(=O)c4c(O)cccc4[C@@](C)(O)[C@H]3[C@H](O)[C@@H]12	Not Active
CCC1(c2ccccc2)C(=O)NCNC1=O	Not Active
C=CC[C@@H]1/C=C(\C)C[C@H](C)C[C@H](OC)[C@H]2O[C@@](O)(C(=O)C(=O)N3CCCC[C@H]3C(=O)O[C@H](/C(C)=C/[C@@H]3CC[C@@H](O)[C@H](OC)C3)[C@H](C)[C@@H](O)CC1=O)[C@H](C)C[C@@H]2OC [TACROLIMUS ANHYDROUS]	Not Active
C[C@](N)(Cc1ccc(O)cc1)C(=O)O	Not Active
COc1c(N2CCNC(C)C2)c(F)cc2c(=O)c(C(=O)O)cn(C3CC3)c12 (configuration not stated)	Not Active

# IC50 of COc1cccc(C2(O)CCCCC2CN(C)C)c1 (configuration not stated) = Not Active

---

# TGT: Kappa-type opioid receptor (Homo sapiens, UniProt P41145)
# Sequence (P41145 whole entry): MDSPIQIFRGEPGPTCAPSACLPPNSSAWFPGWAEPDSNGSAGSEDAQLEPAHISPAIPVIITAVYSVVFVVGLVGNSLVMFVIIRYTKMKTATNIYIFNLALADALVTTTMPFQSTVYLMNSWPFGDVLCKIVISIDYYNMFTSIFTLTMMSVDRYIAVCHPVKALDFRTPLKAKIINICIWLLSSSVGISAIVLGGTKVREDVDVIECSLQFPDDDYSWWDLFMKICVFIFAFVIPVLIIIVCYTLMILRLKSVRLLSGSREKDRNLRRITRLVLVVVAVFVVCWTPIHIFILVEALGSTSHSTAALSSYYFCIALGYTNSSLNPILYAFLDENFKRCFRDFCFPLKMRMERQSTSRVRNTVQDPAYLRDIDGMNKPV
# METHOD SUMMARY: DRUGMATRIX: Opiate kappa (OP2, KOP) radioligand binding (ligand: [3H] Diprenorphine)
# Format: cell membranes, HEK293, Membrane
# EXPERIMENTAL CONDITIONS: Not Active = under 50% inhibition at 10 µM; read-out: IC50
PROPERTY MEASURED: pIC50
Bear in mind: pIC50 is minus log10 of a mol/L concentration; give just that figure.

# pIC50 of Clc1ccccc1C(c1ccccc1)(c1ccccc1)n1ccnc1 [CLOTRIMAZOLE] = 5.20

---

# TGT: Alpha-1B adrenergic receptor (Rattus norvegicus, UniProt P15823)
# Sequence (P15823 whole entry): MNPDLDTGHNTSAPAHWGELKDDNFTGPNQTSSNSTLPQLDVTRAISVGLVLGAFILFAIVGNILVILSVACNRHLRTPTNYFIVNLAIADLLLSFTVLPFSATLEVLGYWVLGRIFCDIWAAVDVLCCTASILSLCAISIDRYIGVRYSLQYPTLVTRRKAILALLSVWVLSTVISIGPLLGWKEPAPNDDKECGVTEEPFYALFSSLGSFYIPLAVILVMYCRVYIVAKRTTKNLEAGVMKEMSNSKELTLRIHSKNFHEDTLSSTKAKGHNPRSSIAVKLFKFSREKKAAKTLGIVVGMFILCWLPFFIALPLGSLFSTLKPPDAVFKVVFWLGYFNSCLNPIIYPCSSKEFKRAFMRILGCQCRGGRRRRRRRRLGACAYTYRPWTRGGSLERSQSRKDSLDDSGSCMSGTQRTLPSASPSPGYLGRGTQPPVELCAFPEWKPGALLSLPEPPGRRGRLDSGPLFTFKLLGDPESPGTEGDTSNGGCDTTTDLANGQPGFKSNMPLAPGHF
# METHOD SUMMARY: DRUGMATRIX: Alpha-1B adrenergic receptor radioligand binding (ligand: prazosin)
# Assay type: cell membranes, Wistar, Liver, Membrane
# EXPERIMENTAL CONDITIONS: Not Active = under 50% inhibition at 10 µM

COMPOUND	TGT	IC50
CC(C)n1c(/C=C/C(O)CC(O)CC(=O)O)c(-c2ccc(F)cc2)c2ccccc21 (stereo not drawn) [FLUVASTATIN]	Alpha-1B adrenergic receptor (Rattus norvegicus, UniProt P15823)	Not Active
CC(=O)[C@@]1(O)CC[C@H]2[C@@H]3C[C@H](C)C4=CC(=O)C=C[C@]4(C)[C@@]3(F)[C@@H](O)C[C@@]21C [FLUOROMETHOLONE]	Alpha-1B adrenergic receptor (Rattus norvegicus, UniProt P15823)	Not Active
C=C(C)[C@@H]1[C@H]2OC(=O)[C@@H]1[C@]1(O)C[C@H]3O[C@]34C(=O)O[C@H]2[C@]14C [PICROTOXININ]	Alpha-1B adrenergic receptor (Rattus norvegicus, UniProt P15823)	Not Active

---

# TGT: Alpha-1D adrenergic receptor (Homo sapiens, UniProt P25100)
# Sequence (P25100 whole entry): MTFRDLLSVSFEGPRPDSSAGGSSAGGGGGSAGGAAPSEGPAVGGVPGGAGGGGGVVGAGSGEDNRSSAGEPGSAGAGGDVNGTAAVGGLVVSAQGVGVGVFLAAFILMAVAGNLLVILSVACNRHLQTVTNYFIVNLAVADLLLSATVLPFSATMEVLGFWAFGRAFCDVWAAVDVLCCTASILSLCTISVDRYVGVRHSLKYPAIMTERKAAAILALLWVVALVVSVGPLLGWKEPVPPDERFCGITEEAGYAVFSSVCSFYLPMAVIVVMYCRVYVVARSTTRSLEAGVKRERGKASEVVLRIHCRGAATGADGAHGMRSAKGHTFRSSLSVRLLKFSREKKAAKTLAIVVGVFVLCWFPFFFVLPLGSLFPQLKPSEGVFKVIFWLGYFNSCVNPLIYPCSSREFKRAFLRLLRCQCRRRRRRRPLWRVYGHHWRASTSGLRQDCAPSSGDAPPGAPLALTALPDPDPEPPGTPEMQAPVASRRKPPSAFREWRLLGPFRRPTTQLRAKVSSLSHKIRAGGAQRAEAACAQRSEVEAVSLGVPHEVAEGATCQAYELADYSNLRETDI
# Type: cell membranes, HEK293, Membrane
# EXPERIMENTAL CONDITIONS: hek293

COMPOUND	IC50
COc1ccc(C(CN(C)C)C2(O)CCCCC2)cc1 (centres undefined) [VENLAFAXINE]	Not Active
CC1COc2c(N3CCN(C)CC3)c(F)cc3c(=O)c(C(=O)O)cn1c23 (centres undefined) [OFLOXACIN]	Not Active
Fc1ccc([C@@H]2CCNC[C@H]2COc2ccc3c(c2)OCO3)cc1 [PAROXETINE]	Not Active
CC(=O)OCC(=O)[C@@]1(OC(C)=O)[C@@H](C)C[C@H]2[C@@H]3C[C@H](F)C4=CC(=O)C=C[C@]4(C)[C@@]3(F)[C@@H](O)C[C@@]21C [DIFLORASONE DIACETATE]	Not Active
